- Test system: 786-O (renal adenocarcinoma) cell line
- test.name: CellTiter-Glo luminescent cell viability assay, 786-O
- Assay type: cell-based, human
- stated.conditions: Homo sapiens, 786-0; 786-O cell line; 72 h incubation; CellTiter-Glo; read-out: EC50, growth inhibition of 786-O
pEC50: −log10 of the molar value. Where a name gives a salt, the structure may show the parent alone.
Could you please report measured pEC50 for the items listed next?

Ask: Request the reported pEC50 associated with Cc1cccc2c(N3CCC(NC(C)(C)C)CC3)c(C#N)c(NCc3ccc(Cl)cc3)nc12 [Compound 414CN]
Result: 5.30 to 6.30

Ask: Moving on to the next compound: CN1CCN(C(=O)C2CCN(c3cc(NCc4ccc(Cl)cc4)nc4ccccc34)CC2)CC1 [Compound 1656, hydrochloride]
Result: 5.30 to 6.30

Ask: Ok, now Cc1ccnc(Nc2ccc(Nc3nc4ccccc4c(N4CCC(NC(C)(C)C)CC4)c3C#N)cc2C)n1 [Compound 500CN]
Result: 5.00 to 5.30

Ask: Similarly, Clc1ccc(CNc2cc(N3CCC(Oc4cnccn4)CC3)c3ccccc3n2)cc1 [Compound 2958, hydrochloride] ?
Result: 5.00 to 5.30

Ask: Entry N#Cc1c(NCc2ccc(Cl)cc2)nc2ccccc2c1N1CCC(N)CC1 [Compound 3170CN] please
Result: 5.30 to 6.30

Ask: Input Clc1ccc(CNc2cc(N3CC[C@@H](Oc4ccccn4)C3)c3ccccc3n2)cc1 [Compound 3026, hydrochloride]
Result: 5.30 to 6.30

Ask: Could you do the same for Cc1c(F)ccc2c(N3CCC(NC(C)(C)C)CC3)cc(NCc3ccc(Cl)cc3)nc12 , please?
Result: 5.30 to 6.30

Ask: Input Clc1ccc(CNc2cc(N3CCC(Oc4ccncc4)CC3)c3ccccc3n2)cc1 [Compound 2950, hydrochloride]
Result: 5.30 to 6.30

----------
- System: A375 (malignant melanoma) cell line
- test.name: CellTiter-Glo luminescent cell viability assay, A375
- Assay type: cell-based, human
- stated.conditions: Homo sapiens, A-375; A375, compound at 10 μM, 72 h
- Experimental: All cell lines were maintained in medium containing 1% penicillin-streptomycin (Dutscher, P06-07100) and 10% Fetal Bovine Serum (Hyclone Dutscher, RZK35922) cultured at 37° C. with 5% CO2. […] Cell viability was measured using the CellTiter-Glo® luminescent cell viability assay as described by the manufacturer (Promega, Ref G7571) using an Infinite F200Pro luminometer (Tecan). […]
Counter-ions that a name gives are not always drawn.
Please respond with reported viability at 10 µM for every item in the list.
Give the value in % but do not write % after it.

Ask: Would you mind telling me what viability at 10 µM value was observed for CC(C)(C)NC1CCN(c2c(F)c(Nc3cccc(Nc4nccc(C(F)(F)F)n4)c3)nc3ccccc23)CC1 [Compound 540F] ?
Result: 0.3

Ask: Next molecule up: N#Cc1c(NCc2ccc(Cl)cc2)nc2ccccc2c1N1CCCC(N2CCCC2)C1 (centres unmarked) [Compound 176CN]
Result: 65.4

Ask: For N#Cc1c(NCc2ccc(Cl)cc2)nc2ccccc2c1N1CCC(NC2CCOCC2)CC1 [Compound 3180CN] then?
Result: 0.3

Ask: Proceed to N#Cc1c(NCc2ccc(Cl)cc2)nc2ccccc2c1N1CCCC(Oc2ccccc2)C1 (centres unmarked) [Compound 3206CN]
Result: 104

Ask: What do you have for CC(C)(C)NC1CCN(c2c(C#N)c(Nc3ccccc3)nc3ccccc23)CC1 [Compound 3246CN] ?
Result: 0.2

Ask: Ok, now Cc1ccc(CNc2nc3ccccc3c(N3CCC(NC(C)(C)C)CC3)c2C#N)cc1 [Compound 3288CN]
Result: 0.3

Ask: What do you get for Cc1nccnc1OC1CCN(c2c(C#N)c(NCc3ccc(Cl)cc3)nc3ccccc23)CC1 [Compound 2970CN] ?
Result: 80.8

Ask: Entry to check: Cc1nc(Nc2nc3ccccc3c(N3CCC(NC(C)(C)C)CC3)c2C#N)n(C)n1 [Compound 3274CN]
Result: 69.2

Ask: Follow-up entry: Cc1ccnc(Nc2ccc(Nc3nc4ccccc4c(N4CCC(NC(C)(C)C)CC4)c3C)cc2)n1 [Compound 532Me]
Result: 0.3

Ask: Here is the next molecule: Cc1cc(Nc2nc3ccccc3c(N3CCC(NC(C)(C)C)CC3)c2C#N)ccc1Nc1nccc(-c2cccnc2)n1 [Compound 3131CN]
Result: 0.1

Ask: Check CC(C)N(Cc1ccc(Cl)cc1)c1cc(N2CCC(NC(C)(C)C)CC2)c2ccccc2n1 [Compound 216, hydrochloride] too.
Result: 0.4

Ask: And what about the molecule CC(C)(C)NC1CCN(c2c(C#N)c(NCc3ccccn3)nc3ccccc23)CC1 [Compound 3308CN] ?
Result: 67.7

Ask: Moving on to the next molecule: CC(C)(C)NC1CCN(c2c(C#N)c(NCc3ccc(C(F)(F)F)cc3)nc3ccccc23)CC1 [Compound 3292CN]
Result: 0.2

Ask: Then N#Cc1c(NCc2ccc(Cl)cc2)nc2ccccc2c1N1CCC(N2CCOCC2)CC1 [Compound 202CN] ?
Result: 79.2

Ask: Another molecule to check: CC(C)(C)NC1CCN(c2c(C#N)c(Nc3ccccn3)nc3ccccc23)CC1 [Compound 3278CN]
Result: 45.2

Ask: Next up: CC(C)(C)NC1CCN(c2c(F)c(NCc3ccc(F)cc3)nc3ccccc23)CC1 [Compound 240F]
Result: 0.2

Ask: Next record, please: N#Cc1c(NCc2ccc(Cl)cc2)nc2ccccc2c1N1CCC(N2CCCC2)C1 (centres unmarked) [Compound 148CN]
Result: 93.2

Ask: Also, Cc1nnc(Nc2nc3ccccc3c(N3CCC(NC(C)(C)C)CC3)c2C#N)o1 [Compound 3272CN] please.
Result: 21.2

Ask: Try CN(C)C1CCCN(c2c(C#N)c(NCc3ccc(Cl)cc3)nc3ccccc23)C1 (centres unmarked) [Compound 3164CN] next.
Result: 39.3

Ask: Can you handle N#Cc1c(NCc2ccc(Cl)cc2)nc2ccccc2c1N1CCC(Oc2ccccc2)C1 (centres unmarked) [Compound 3330CN] next?
Result: 82.4

Ask: Try N#Cc1c(NCc2ccc(Cl)cc2)nc2ccccc2c1N1CCC(N)CC1 [Compound 3170CN] next.
Result: 0.3

Ask: Consider next the molecule CC(C)(C)NC1CCN(c2c(C#N)c(Nc3ccncn3)nc3ccccc23)CC1 [Compound 3282CN] in the same way.
Result: 64.1

Ask: Repeat with CC(C)(C)NC1CCN(c2c(C#N)c(NCc3ccco3)nc3ccccc23)CC1 [Compound 3302CN]
Result: 14.3

Ask: Likewise for CC(C)(C)NC1CCN(c2c(C#N)c(Nc3ccc(F)c(F)c3)nc3ccccc23)CC1 [Compound 3264CN] ?
Result: 0.4

Ask: Note, next up: N#Cc1c(NCc2ccc(Cl)cc2)nc2ccccc2c1N1CCC(N)C1 (centres unmarked) [Compound 3190CN]
Result: 0.8

Ask: Query CN1CCN(C2CCN(c3c(C#N)c(NCc4ccc(Cl)cc4)nc4ccccc34)CC2)CC1 [Compound 3188CN] next
Result: 0.4
